Lab note: pIC50 readings collected with TrkB (Homo sapiens) for the following molecules.
Sequence (Q16620 32-822, species assumed): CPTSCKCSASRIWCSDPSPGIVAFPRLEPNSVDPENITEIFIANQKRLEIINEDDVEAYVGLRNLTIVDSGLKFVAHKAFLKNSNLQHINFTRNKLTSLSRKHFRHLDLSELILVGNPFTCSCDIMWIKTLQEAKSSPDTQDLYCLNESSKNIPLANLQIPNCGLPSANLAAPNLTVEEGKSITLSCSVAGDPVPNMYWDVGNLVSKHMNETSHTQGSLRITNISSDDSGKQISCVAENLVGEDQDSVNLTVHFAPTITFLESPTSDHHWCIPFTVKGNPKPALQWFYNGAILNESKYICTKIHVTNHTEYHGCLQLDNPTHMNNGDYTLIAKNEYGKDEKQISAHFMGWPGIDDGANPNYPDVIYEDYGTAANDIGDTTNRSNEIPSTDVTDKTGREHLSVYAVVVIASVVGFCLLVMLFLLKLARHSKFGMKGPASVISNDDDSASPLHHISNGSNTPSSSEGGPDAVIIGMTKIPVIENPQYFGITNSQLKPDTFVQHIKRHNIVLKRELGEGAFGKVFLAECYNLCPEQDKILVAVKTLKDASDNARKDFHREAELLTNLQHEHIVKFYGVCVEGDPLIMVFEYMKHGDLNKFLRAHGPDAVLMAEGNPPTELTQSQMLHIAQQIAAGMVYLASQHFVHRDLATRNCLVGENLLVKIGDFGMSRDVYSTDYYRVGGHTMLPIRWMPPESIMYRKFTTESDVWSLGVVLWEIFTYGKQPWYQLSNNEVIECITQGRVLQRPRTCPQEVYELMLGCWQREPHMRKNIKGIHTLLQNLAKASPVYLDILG
Give bare numbers, as −log10 of the molar value.

Worked cases, pIC50 given:
[
  {
    "molecule": "CC(C)N1CCc2ncc(F)cc2[C@H]2CCCN2c2ccn3ncc(c3n2)C(=O)N1 [Example 6]",
    "pIC50": 9.08
  },
  {
    "molecule": "CCN1NC(=O)c2cnn3ccc(nc23)N2CCC[C@@H]2c2cc(F)cnc2CC1C (single isomer, unassigned) [Example 8b]",
    "pIC50": 8.87
  },
  {
    "molecule": "CCN1NC(=O)c2cnn3ccc(nc23)N2CCC[C@@H]2c2cc(F)cnc2CC1C (single isomer, unassigned) [Example 8a]",
    "pIC50": 8.21
  }
]

Turning to the following molecule.
Problem: I'd like to know its pIC50. The molecule in question is CC1Cc2ncc(F)cc2[C@H]2CCCN2c2ccn3ncc(c3n2)C(=O)NN1C1CC1 (single isomer, unassigned) [Example 3a]
Result: 8.80

---

Lab note: pIC50 readings collected with TrkA (Homo sapiens) for the following compounds.
Sequence (P04629 33-796, species assumed): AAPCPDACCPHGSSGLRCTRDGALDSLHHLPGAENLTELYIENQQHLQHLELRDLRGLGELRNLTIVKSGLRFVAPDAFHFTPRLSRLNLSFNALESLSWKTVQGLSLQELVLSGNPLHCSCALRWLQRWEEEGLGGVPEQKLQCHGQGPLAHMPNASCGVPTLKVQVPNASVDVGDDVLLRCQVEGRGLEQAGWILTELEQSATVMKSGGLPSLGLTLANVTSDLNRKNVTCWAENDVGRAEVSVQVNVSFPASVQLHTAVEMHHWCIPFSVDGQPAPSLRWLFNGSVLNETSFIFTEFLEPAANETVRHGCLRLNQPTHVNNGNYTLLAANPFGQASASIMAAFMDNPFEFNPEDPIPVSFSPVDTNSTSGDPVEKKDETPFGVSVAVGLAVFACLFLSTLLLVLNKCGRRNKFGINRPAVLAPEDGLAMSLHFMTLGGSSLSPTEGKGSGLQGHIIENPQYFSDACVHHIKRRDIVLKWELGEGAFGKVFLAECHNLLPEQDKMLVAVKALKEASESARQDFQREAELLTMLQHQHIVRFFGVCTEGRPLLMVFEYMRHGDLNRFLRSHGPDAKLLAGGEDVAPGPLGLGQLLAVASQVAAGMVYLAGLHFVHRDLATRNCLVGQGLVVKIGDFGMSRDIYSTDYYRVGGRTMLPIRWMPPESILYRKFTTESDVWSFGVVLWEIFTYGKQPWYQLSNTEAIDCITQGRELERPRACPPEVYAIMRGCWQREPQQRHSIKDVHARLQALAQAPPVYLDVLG
One number for each entry, as −log10 of the molar value.

[
  {
    "compound": "CC1Cc2ncc(F)cc2[C@H]2CCCN2c2ccn3ncc(c3n2)C(=O)NN1C (single isomer, unassigned) [Example 7b]",
    "pIC50": 8.58
  }
]

Dear reader, for each entry below, please note its pIC50.
1. CCN1NC(=O)c2cnn3ccc(nc23)N2CCC[C@@H]2c2cc(F)cnc2CC1C (single isomer, unassigned) [Example 8b]
2. CC1Cc2ncc(F)cc2[C@H]2CCCN2c2ccn3ncc(c3n2)C(=O)NN1C1CC1 (single isomer, unassigned) [Example 3b]
3. CC1Cc2ncc(F)cc2[C@H]2CCCN2c2ccn3ncc(c3n2)C(=O)NN1C (single isomer, unassigned) [Example 7a]
4. CC1Cc2ncc(F)cc2[C@H]2CCCN2c2ccn3ncc(c3n2)C(=O)NN1C1CC1 (single isomer, unassigned) [Example 3a]
5. CC1Cc2ncc(F)cc2[C@H]2CCCN2c2ccn3ncc(c3n2)C(=O)NN1C1CC1 (stereo partly shown) [Example 2]
6. O=C1NN(C2CC2)CCc2ncc(F)cc2[C@H]2CCCN2c2ccn3ncc1c3n2

Result:
1. 8.73
2. 8.67
3. 8.49
4. 8.64
5. 8.42
6. 8.37

---

Test: Metabolic stability in human liver microsomes
Type: in vitro ADME
Details: pH 7.4; human liver microsomes 0.5 mg/mL, compound 1 μmol/L; read-out: Clint (μL/min/mg protein)
Task for the reader: assign each of the following molecules its reported microsomal CLint at 1 μmol/L.
One number for each entry, in µL/min/mg.

Worked cases, microsomal CLint at 1 μmol/L given:
[
  {
    "molecule": "C[C@@H]1CCc2ncc(F)cc2[C@H]2CCCN2c2ccn3ncc(c3n2)C(=O)N1 [LOXO-195, reference compound]",
    "microsomal CLint at 1 μmol/L / µL/min/mg": 90.6
  },
  {
    "molecule": "CN1CCc2ncc(F)cc2[C@H]2CCCN2c2ccn3ncc(c3n2)C(=O)N1",
    "microsomal CLint at 1 μmol/L / µL/min/mg": 6.4
  },
  {
    "molecule": "O=C(Nc1cnn2ccc(N3CCC[C@@H]3c3cc(F)ccc3F)nc12)N1CC[C@H](O)C1 [LOXO-101, reference compound]",
    "microsomal CLint at 1 μmol/L / µL/min/mg": 23.4
  }
]

Problem: I'd like to know its microsomal CLint at 1 μmol/L. The molecule in question is "O=C1NN(C2CC2)CCc2ncc(F)cc2[C@H]2CCCN2c2ccn3ncc1c3n2"
Result: 20.8
